Measured EC50 of individual entries
Assay system: DOR-1 (Mus musculus)
Construct: expressed in transfected cells; host or cells: CHO
Sequence (P32300 whole entry): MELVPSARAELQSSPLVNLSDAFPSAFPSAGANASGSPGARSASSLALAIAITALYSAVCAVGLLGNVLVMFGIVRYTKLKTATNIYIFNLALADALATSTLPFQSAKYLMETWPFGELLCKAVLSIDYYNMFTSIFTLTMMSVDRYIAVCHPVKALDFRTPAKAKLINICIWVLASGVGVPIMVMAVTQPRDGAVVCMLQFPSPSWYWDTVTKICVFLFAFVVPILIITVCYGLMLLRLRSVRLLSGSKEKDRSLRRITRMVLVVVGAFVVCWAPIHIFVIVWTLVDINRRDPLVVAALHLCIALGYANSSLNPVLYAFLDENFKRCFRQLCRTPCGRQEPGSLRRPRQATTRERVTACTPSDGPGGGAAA
Test description: [35S]GTPγS functional assay, DOR-1 transfected cell membranes
Format: biochemical
Condition: agonist stimulation of [35S]GTPγS binding
Use nM as the unit, but write only the number.

# Molecule, EC50 (nM)
measured = [
    ("CC[C@@H]1CN2CC[C@]3(Nc4cccc(-c5ccccc5)c4C3=O)C2C[C@@H]1/C(=C\\OC)C(=O)OC (some centres unmarked) [VM1511]", 0.83),
]

Query molecule follows.
Consider the molecule shown here: CC[C@@H]1CN2CCC3(Nc4c(-c5ccoc5)ccc(OC)c4C3=O)C2C[C@@H]1/C(=C\OC)C(=O)OC (some centres unmarked) [VM1514] What is its recorded EC50?
244
